# target: full length recombinant H1 residues 18-530 derived from A/California/06/09 (Influenza A virus A/California/06/09 (H1N1))
# experiment summary: SPR, single cycle kinetics, HA immobilised
For each record, write down the corresponding Kd.
One number for each entry, in nM.

binder: R2a-E8 (VHH) VHH: QLQLVESGGGLVQPGGSLRLSCTASGDIFVMYMIDWYRQAPGKQRELVASIDGRGTPMYADSVKGRFTISRDNAKNTVYLQMNSLKPEDTAVYSCHAKSPLVDNEYWGQGTQVTVSS
u: nM
Kd: 0.8

Now for the binder whose Kd we want.
Any idea what Kd was measured for R2b-E8 (VHH) VHH: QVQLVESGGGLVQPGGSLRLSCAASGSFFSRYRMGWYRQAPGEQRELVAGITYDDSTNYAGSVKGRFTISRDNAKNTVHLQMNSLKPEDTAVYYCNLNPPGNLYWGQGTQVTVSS ?
8.2
